# tested_on: Lysine--tRNA ligase (Plasmodium falciparum (isolate 3D7))
# Sequence (Q8IDJ8 whole entry): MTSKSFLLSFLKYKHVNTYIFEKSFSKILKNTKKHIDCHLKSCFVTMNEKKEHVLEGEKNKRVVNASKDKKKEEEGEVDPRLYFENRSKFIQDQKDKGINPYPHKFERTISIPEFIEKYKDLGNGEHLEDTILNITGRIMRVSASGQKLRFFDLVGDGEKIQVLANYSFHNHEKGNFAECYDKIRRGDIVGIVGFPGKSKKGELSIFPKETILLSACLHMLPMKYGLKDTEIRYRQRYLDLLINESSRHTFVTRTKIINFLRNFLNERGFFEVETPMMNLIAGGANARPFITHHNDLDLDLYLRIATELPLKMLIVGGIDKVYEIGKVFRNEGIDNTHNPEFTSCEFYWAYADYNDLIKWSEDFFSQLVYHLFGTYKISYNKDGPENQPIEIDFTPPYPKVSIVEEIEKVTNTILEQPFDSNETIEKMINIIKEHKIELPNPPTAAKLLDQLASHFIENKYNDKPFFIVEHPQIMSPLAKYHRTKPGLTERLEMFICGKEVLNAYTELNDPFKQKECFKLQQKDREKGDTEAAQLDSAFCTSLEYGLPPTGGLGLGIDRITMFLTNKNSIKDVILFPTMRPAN
# measurement_protocol: Inhibition of Plasmodium falciparum KRS expressed in Escherichia coli BL21 using tRNA(Lys) as substrate after 45 mins in presence of L-lysine by AMP-GLO assay
pIC50: −log10 of the molar value.
Hi, to clarify the labels: true covers pIC50 from 5 upward, false covers anything below 5.

Recorded results for 4 compounds are shown here.
C[C@H]1CCC[C@H](C[C@@H]2Cc3cc(O)cc(O)c3C(=O)O2)O1 true
C[C@H]1CCC[C@@H](C[C@H]2Cc3cc(O)cc(O)c3C(=O)O2)O1 true
C[C@@H]1CCC[C@H](C[C@H]2Cc3cc(O)cc(O)c3C(=O)O2)O1 true
C[C@@H]1CCC[C@H](C[C@@H]2Cc3cc(O)cc(O)c3C(=O)O2)O1 false

Request: API: above_or_equal(metric=pIC50, cutoff=5) for item C[C@H]1CCC[C@H](C[C@H]2Cc3cc(O)cc(O)c3C(=O)O2)O1
Result: true

Request: Entry to check: C[C@H]1CCC[C@@H](C[C@@H]2Cc3cc(O)cc(O)c3C(=O)O2)O1
Result: false

Request: Entry to check: C[C@@H]1CCC[C@@H](C[C@@H]2Cc3cc(O)cc(O)c3C(=O)O2)O1
Result: false

###

# tested_on: Lysine--tRNA ligase (Plasmodium falciparum (isolate 3D7)) (UniProt Q8IDJ8)
# measurement_protocol: Binding affinity to Plasmodium falciparum KRS expressed in Escherichia coli BL21 by thermal shift assay
The reader will find reported ΔTm values listed item by item below.
Param answer (str): number followed by unit.

Solved entries (count: 7):
C[C@H]1CCC[C@@H](C[C@H]2Cc3cc(O)cc(O)c3C(=O)O2)O1 15.6 °C
C[C@@H]1CCC[C@H](C[C@@H]2Cc3cc(O)cc(O)c3C(=O)O2)O1 11.8 °C
C[C@@H]1CCC[C@@H](C[C@@H]2Cc3cc(O)cc(O)c3C(=O)O2)O1 7.9 °C
C[C@H]1CCC[C@H](C[C@@H]2Cc3cc(O)cc(O)c3C(=O)O2)O1 14.3 °C
C[C@@H]1CCC[C@H](C[C@H]2Cc3cc(O)cc(O)c3C(=O)O2)O1 16.2 °C
C[C@H]1CCC[C@@H](C[C@@H]2Cc3cc(O)cc(O)c3C(=O)O2)O1 11.4 °C
C[C@@H]1CCC[C@@H](C[C@H]2Cc3cc(O)cc(O)c3C(=O)O2)O1 13.5 °C

Request: Tell me the measured ΔTm of C[C@H]1CCC[C@H](C[C@H]2Cc3cc(O)cc(O)c3C(=O)O2)O1 , please.
Result: 17.3 °C

All values here come from ChEMBL document CHEMBL4190393.
